molecular target: IL-17A/F (Homo sapiens, UniProt Q16552+Q96PD4); assay: IL-17A/F HEK-Blue cell assay (SEAP reporter); details: HEK-Blue IL-17A reporter cells, IL17A/F 5 ng/mL, 20 hours, SEAP read at A630; read-out: HEK-Blue IL17AF (IC50 for IL-17A/F inhibition)
Sequence (Q16552 24-155): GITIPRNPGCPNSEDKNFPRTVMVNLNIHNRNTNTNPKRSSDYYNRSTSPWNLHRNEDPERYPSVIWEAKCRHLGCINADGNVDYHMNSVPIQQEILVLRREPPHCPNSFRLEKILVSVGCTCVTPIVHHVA
Sequence (Q96PD4 31-163): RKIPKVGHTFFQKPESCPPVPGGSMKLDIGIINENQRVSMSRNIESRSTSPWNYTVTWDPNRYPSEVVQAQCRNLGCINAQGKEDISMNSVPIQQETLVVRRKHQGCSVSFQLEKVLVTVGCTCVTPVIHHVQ
Listed below: IC50 values for each entry.

INSERT INTO assay_data (compound, observedresult) VALUES
  ('CCn1nccc1C(=O)N[C@H](c1cn2nc(C[C@H]3C[C@@H](C(F)(F)F)CNC3=O)c(CC3COC3)nc2n1)C1CCC(F)(F)CC1 [Compound 168]', '100 to 1000 nM'),
  ('O=C(N[C@H](c1cn2nc(C[C@H]3C[C@@H](C(F)(F)F)CNC3=O)c(C3CCOCC3)nc2n1)C1CCC(F)(F)CC1)c1conc1C(F)(F)F [Compound 191]', '100 to 1000 nM'),
  ('C=CCCc1nc2nc([C@@H](NC(=O)c3ccnn3CC)C3CCC(F)(F)CC3)cn2nc1C[C@H]1C[C@@H](C(F)(F)F)CNC1=O [Compound 215]', '100 to 1000 nM');

Jot down IC50 (IL-17A/F (Homo sapiens, UniProt Q16552+Q96PD4)) of CCn1nccc1C(=O)N[C@H](c1cn2nc(C[C@H]3C[C@@H](C(F)(F)F)CNC3=O)c(CC3CCCCO3)nc2n1)C1CCC(F)(F)CC1 (stereo partly drawn) [Compound 172] .
100 to 1000 nM

Jot down IC50 (IL-17A/F (Homo sapiens, UniProt Q16552+Q96PD4)) of O=C(N[C@H](c1cn2nc(C[C@H]3C[C@@H](C(F)(F)F)CNC3=O)c(C3CCS(=O)(=O)CC3)nc2n1)C1CCC(F)(F)CC1)c1nonc1C1CC1 [Compound 243] .
> 1000 nM

Jot down IC50 (IL-17A/F (Homo sapiens, UniProt Q16552+Q96PD4)) of CCn1nccc1C(=O)N[C@H](c1cn2nc(C[C@H]3C[C@@H](C(F)(F)F)CNC3=O)c(C3CCC(F)(F)CC3)nc2n1)C1CCC(F)(F)CC1 [Compound 182] .
< 100 nM
